# assay_target: T1, activated KLK8 (human KLK8, C-terminal His tag, pro-KLK8 activated with thermolysin) (UniProt O60259 33-260)
# T1 chain: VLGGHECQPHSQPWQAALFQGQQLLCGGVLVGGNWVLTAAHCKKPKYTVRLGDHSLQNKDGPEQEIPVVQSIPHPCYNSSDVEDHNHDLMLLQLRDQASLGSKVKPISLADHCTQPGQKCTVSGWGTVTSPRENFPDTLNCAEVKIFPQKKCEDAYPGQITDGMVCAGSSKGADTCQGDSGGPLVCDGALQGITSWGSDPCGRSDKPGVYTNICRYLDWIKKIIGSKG
# protocol_summary: peptide substrate degradation inhibition
pIC50: −log10 of the molar value.
assay_readout: pIC50

Entry under review: KLK4/KLK8 inhibitory peptide K41021 (designed binder) GSGMKETAAAKFERQHMDSPDLGTDDDDKAMADIGSANSDPQFGLFSKYRTPNCRKHTLDGCARIYDPVCGSDMSTYANECTLCMKIREGGHNIKIIRNGPCGASAAA . Reported pIC50?
8.12

[1] KLK4/KLK8 inhibitory peptide K41047 (designed binder) GSGMKETAAAKFERQHMDSPDLGTDDDDKAMADIGSANSDPQFGLFSKYRTPNCMRFHKDGCARIYDPVCGSDMSTYANECTLCMKIREGGHNIKIIRNGPCGASAAA
[2] KLK4/KLK8 inhibitory peptide K41025 (designed binder) GSGMKETAAAKFERQHMDSPDLGTDDDDKAMADIGSANSDPQFGLFSKYRTPNCSRYKSGGCTRIFDPVCGSDMSTYANECTLCMKIREGGHNIKIIRNGPCGASAAA
[3] KLK4/KLK8 inhibitory peptide K41026 (designed binder) GSGMKETAAAKFERQHMDSPDLGTDDDDKAMADIGSANSDPQFGLFSKYRTPNCQRYKMRGCNRMYDPVCGSDMSTYANECTLCMKIREGGHNIKIIRNGPCGASAAA
[4] KLK4/KLK8 inhibitory peptide K41045 (designed binder) GSGMKETAAAKFERQHMDSPDLGTDDDDKAMADIGSANSDPQFGLFSKYRTPNCRKQYWVGCNRMYAPVCGSDMSTYANECTLCMKIREGGHNIKIIRNGPCGASAAA
Rank items: key pIC50, increasing. Please respond by ranking the labels in the order requested.
4, 1, 2, 3
(4: 6.94, 1: 7.50, 2: 7.77, 3: 8.04)
